- Tested on: p75^NTR receptors (PC12 cells)
- Procedure summary: Basic screening assay: binding of 125I-NGF to PC12 cells
- Condition details: Example 3 table

- Item smiles: "Cc1cc(-c2ccc(C=C3C(=O)NC(=S)NC3=O)o2)c(C)c([N+](=O)[O-])c1"
  125I-NGF Binding (% binding): "* (50 < *)"
- Item smiles: "O=C(O)c1cc(-c2ccc(/C=C3\\NC(=O)N(c4cccc(Cl)c4)C3=O)o2)ccc1Cl"
  125I-NGF Binding (% binding): "* (50 < *)"
- Item smiles: "O=C1NC(=O)/C(=C\\c2ccc(-c3ccc(Cl)c([N+](=O)[O-])c3)o2)S1"
  125I-NGF Binding (% binding): "* (50 < *)"

----------
Each record here notes measured pIC50.
- System: p75^NTR (Rattus norvegicus, UniProt P07174)
- Construct: ^125I-BDNF crosslinking to p75^NTR receptors on nnr5 cells expressing p75^NTR; endogenous in cells
- Sequence (P07174 30-425): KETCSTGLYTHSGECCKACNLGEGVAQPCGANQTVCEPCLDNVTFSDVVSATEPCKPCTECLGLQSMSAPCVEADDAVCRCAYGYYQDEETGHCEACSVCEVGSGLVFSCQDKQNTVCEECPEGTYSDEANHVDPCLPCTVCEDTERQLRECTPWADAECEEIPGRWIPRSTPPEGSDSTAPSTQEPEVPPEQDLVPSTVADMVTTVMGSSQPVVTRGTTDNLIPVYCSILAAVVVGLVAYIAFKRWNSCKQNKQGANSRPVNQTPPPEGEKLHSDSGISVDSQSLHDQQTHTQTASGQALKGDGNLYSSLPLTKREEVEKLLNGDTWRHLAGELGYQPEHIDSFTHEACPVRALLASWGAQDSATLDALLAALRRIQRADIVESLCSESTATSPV
- Sequence (P23560 129-247 partner): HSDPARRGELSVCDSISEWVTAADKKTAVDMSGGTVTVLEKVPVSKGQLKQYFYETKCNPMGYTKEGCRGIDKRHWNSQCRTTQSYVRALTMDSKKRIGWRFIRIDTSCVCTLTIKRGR
- Procedure summary: 125I-BDNF crosslinking to p75^NTR receptors on nnr5 cells
- Condition details: 0.1 nM 125I-BDNF, 2 h at 4° C., read-out: IC50 (mean±S.E.M), inhibition of 125I-BDNF crosslinking to p75^NTR
Here pIC50 is given on a logarithmic scale as minus log10 of the concentration in mol/L.

- Molecule: "NS(=O)(=O)c1ccc(-c2ccc(/C=C3/SC(=S)N(CCC(=O)O)C3=O)o2)cc1 [Compound B]"
  pIC50: 4.98

# context switch: different molecule, same pIC50
What reported pIC50 corresponds to COc1ccc(-c2ccc(C=C3C(=O)N(c4ccc(C(=O)O)cc4)N=C3C)o2)c([N+](=O)[O-])c1 (racemic) [Compound A] on p75^NTR (Rattus norvegicus, UniProt P07174)? 4.81

----------
- System: p75^NTR receptors (PC12 cells) (Rattus norvegicus)
- Construct: endogenous in cells; host or cells: PC12 cells
- Sequence (P07174 30-425): as the sequence (P07174 30-425) above
- Sequence (P23560 129-247 partner): as the sequence (P23560 129-247 partner) above
- Procedure summary: Basic screening assay: binding of 125I-BDNF to PC12 cells
- Condition details: Table 1; test compound 50 μM; 0.5 nM 125I-BDNF; PC12 cells; 2 h at 4° C.; specific binding as percent of control; read-out: BDNF Activity % Maximal Binding
Readout name: activity at 50 µM

- Compound: "Cc1cccc(N2NC(=O)/C(=C/c3ccc(-c4ccc(Cl)c([N+](=O)[O-])c4)o3)C2=O)c1"
  activity at 50 µM: "30 to 40%"

If you can, please state the reported activity at 50 µM value of CCN1C(=O)S/C(=C/c2ccc(-c3ccc([N+](=O)[O-])cc3OC)o2)C1=O . 40 to 50%

If you can, please state the reported activity at 50 µM value of O=C(O)c1ccc(-c2ccc(/C=C3/NC(=O)N(Cc4ccccc4F)C3=O)o2)cc1Cl . 0 to 10%

If you can, please state the reported activity at 50 µM value of COc1cc([N+](=O)[O-])ccc1-c1ccc(C=C2C(=O)ON=C2c2ccccc2)o1 . 40 to 50%

----------
- Tested on: p75
- Procedure summary: Neurotrophin-receptor crosslinking assay, 125I-NGF (Example 3)
- Assay type: binding
- Condition details: crosslinked sample counted on gamma counter

- Item smiles: "Cc1cc(-c2ccc(C=C3C(=O)NC(=S)NC3=O)o2)c(C)c([N+](=O)[O-])c1"
  125I-NGF X-linking Sample (% binding): "* (50 < *)"
- Item smiles: "O=C1NC(=O)/C(=C\\c2ccc(-c3ccc(Cl)c([N+](=O)[O-])c3)o2)S1"
  125I-NGF X-linking Sample (% binding): "* (50 < *)"
- Item smiles: "O=C(O)c1cc(-c2ccc(/C=C3\\NC(=O)N(c4cccc(Cl)c4)C3=O)o2)ccc1Cl"
  125I-NGF X-linking Sample (% binding): "* (50 < *)"
- Item smiles: "O=C1NC(=S)NC(=O)C1=Cc1ccc(-c2ccc(C(=O)O)c(Cl)c2)o1"
  125I-NGF X-linking Sample (% binding): "* (50 < *)"
